Molecular target: Recombinant His-tagged NAMPT (Homo sapiens)
Construct: His; host or cells: E. coli
Sequence (P43490 whole entry): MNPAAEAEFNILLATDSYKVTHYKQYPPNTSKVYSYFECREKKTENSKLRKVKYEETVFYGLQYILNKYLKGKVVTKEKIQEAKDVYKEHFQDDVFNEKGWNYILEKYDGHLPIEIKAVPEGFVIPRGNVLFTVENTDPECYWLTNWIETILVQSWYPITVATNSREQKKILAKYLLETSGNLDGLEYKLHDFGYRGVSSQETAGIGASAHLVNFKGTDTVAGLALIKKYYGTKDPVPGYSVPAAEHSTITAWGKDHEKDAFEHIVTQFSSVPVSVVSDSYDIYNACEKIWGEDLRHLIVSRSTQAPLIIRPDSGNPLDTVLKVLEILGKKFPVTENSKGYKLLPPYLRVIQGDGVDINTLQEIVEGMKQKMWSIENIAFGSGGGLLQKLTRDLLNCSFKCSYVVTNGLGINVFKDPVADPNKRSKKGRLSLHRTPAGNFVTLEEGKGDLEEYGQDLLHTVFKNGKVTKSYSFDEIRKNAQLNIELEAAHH
Experiment: Biochemical inhibition assay: NAMPT enzymatic reaction, NMN quantified by mass spectrometry
Conditions: 33 nM NAMPT, 1 μM NAM, 100 μM PRPP, 2.5 mM ATP, 30 minutes at room temperature; read-out: Biochem IC50
Readout kind: log10 IC50 (log10 of the value in nM)
Log10 applied to IC50; unit prior to transform: nM.

Some entries whose results are on file:
Structure string | log10 IC50
O=C(NCCCCC1CCN(C(=O)c2cccc(F)c2)CC1)c1cc2cnccc2[nH]1 | 1.21
O=C(NCCCCC1CCN(C(=O)c2ccccc2F)CC1)c1ccc2nccn2c1 | 0.58
O=C(NCCCCC1CCN(C(=O)c2ccc(N3CCOCC3)nc2)CC1)c1ccc2nccn2c1 | 1.11

Required: log10 IC50, one value per compound below.
1. O=C(NCCCCC1CCN(C(=O)c2csc(-c3ccccc3)n2)CC1)c1ccc2nccn2c1
2. O=C(NCCCCC1CCN(C(=O)c2ccc(OC(F)F)cc2)CC1)c1ccc2nccn2c1
3. O=C(NCCCCC1CCN(C(=O)c2ccc(F)cn2)CC1)c1cc2ccncc2s1
4. O=C(NCCCCC1CCN(C(=O)c2ccoc2)CC1)c1cc2ccncc2s1
5. O=C(NCCCCC1CCN(S(=O)(=O)c2ccc(F)cc2)CC1)c1cc2cnccc2[nH]1
6. O=C(NCCCCC1CCN(C(=O)c2ccc(Cl)cc2Cl)CC1)c1cc2ccncc2s1
7. O=C(NCCCCC1CCN(C(=O)c2cc3cnccc3[nH]2)CC1)c1ccc2nccn2c1
8. O=C(NCCCCC1CCN(C(=O)c2ccncc2)CC1)c1cc2cnccc2[nH]1

output:
1.72
1.63
1.42
0.60
1.69
1.61
0.93
0.99

Count: 4. Required value per item: log10 IC50.
1. CCOc1ccccc1C(=O)N1CCC(CCCCNC(=O)c2ccc3nccn3c2)CC1
2. CC(C)c1ccc(C(=O)N2CCC(CCCCNC(=O)c3ccc4nccn4c3)CC2)nc1
3. O=C(NCCCCC1CCN(C(=O)c2ccccn2)CC1)c1cc2cnccc2[nH]1
4. Cn1cc(CC(=O)N2CCC(CCCCNC(=O)c3cc4cnccc4[nH]3)CC2)c2ccccc21

output:
1: 0.72; 2: 1.75; 3: 1.49; 4: 0.96

Could I get log10 IC50 for every one of these entries?
1. O=C(NCCCCC1CCN(C(=O)c2ccccc2)CC1)c1ccc2nccn2c1
2. O=C(NCCCCC1CCN(C(=O)c2ccc(Cl)c(Cl)c2)CC1)c1cc2cnccc2[nH]1

output:
1. 0.74
2. 1.97

Please state, for each entry, its recorded log10 IC50.
1. O=C(NCCCCC1CCN(S(=O)(=O)c2ccccc2)CC1)c1cc2cnccc2[nH]1
2. O=C(NCCCCC1CCN(C(=O)c2cc3ccccc3[nH]2)CC1)c1ccc2nccn2c1
3. Cn1c(C(=O)N2CCC(CCCCNC(=O)c3cc4ccncc4s3)CC2)cc2ccccc21

output:
[1.40, 1.79, 1.81]

====

Target: Recombinant His-tagged NAMPT (Homo sapiens)
Construct: His; host or cells: E. coli
Assay: Biochemical inhibition assay: NAMPT enzymatic reaction, NMN quantified by mass spectrometry
Details: 33 nM NAMPT, 1 μM NAM, 100 μM PRPP, 2.5 mM ATP, 30 minutes at room temperature; read-out: Biochem IC50
From the text: Biochemical Inhibition Assay NAMPT Protein Purification Recombinant His-tagged NAMPT was produced in E. coli cells, purified over a Ni column, and further purified over a size-exclusion column by XTAL Biostructures. The NAMPT Enzymatic Reaction […] A mass spectrometry-based assay was used to measure the Nampt reaction product (NMN) and the internal control (L-Cystathionine). NMN and L-Cystathionine were detected using the services of Biocius Lifesciences with the RapidFire system. […]
Readout kind: pIC50
Numbers only, as −log10 of the molar value.

Structure string | Target under test | pIC50
O=C(NCCCCC1CCN(C(=O)c2csc(-c3ccccc3)n2)CC1)c1cc2cnccc2[nH]1 | Recombinant His-tagged NAMPT (Homo sapiens) | 6.96

Provide each entry's pIC50 from the list below.
1. O=C(NCCCCC1CCN(C(=O)c2ccc3cc[nH]c3c2)CC1)c1ccc2nccn2c1
2. COc1cccc(C(=O)N2CCC(CCCCNC(=O)c3cc4ccncc4s3)CC2)c1OC
3. O=C(NCCCCC1CCN(C(=O)c2ccccc2Cl)CC1)c1ccc2nccn2c1
4. O=C(NCCCCN1CCN(C(=O)c2ccccc2)CC1)c1cc2cnccc2[nH]1
5. O=C(NCCCCC1CCN(C(=O)c2cc3cnccc3[nH]2)CC1)c1cc2ccncc2s1

output:
1: 7.53; 2: 7.77; 3: 8.30; 4: 7.80; 5: 8.16

Dear colleague, could you please provide pIC50 for the molecules listed below?
1. O=C(NCCCCC1CCN(C(=O)c2cccc(F)c2F)CC1)c1ccc2nccn2c1
2. O=C(NCCCCC1CCN(C(=O)c2ccc(F)c(F)c2)CC1)c1cc2cnccc2[nH]1
3. O=C(NCCCCC1CCN(C(=O)c2ccc3ncsc3c2)CC1)c1cc2cnccc2[nH]1
4. O=C(NCCCCC1CCN(C(=O)c2ccc(Cl)cc2)CC1)c1ccc2nccn2c1
5. COc1ccc(OC)c(C(=O)N2CCC(CCCCNC(=O)c3cc4cnccc4[nH]3)CC2)c1

output:
[8.10, 7.25, 7.14, 7.07, 7.81]

Provide each entry's pIC50 from the list below.
1. COc1ccc(C(=O)N2CCC(CCCCNC(=O)c3cc4cnccc4[nH]3)CC2)cc1OC
2. O=C(NCCCCC1CCN(C(=O)c2ccccn2)CC1)c1ccc2nccn2c1
3. COc1cccc(OC)c1C(=O)N1CCC(CCCCNC(=O)c2cc3cnccc3[nH]2)CC1
4. Cn1ccnc1C(=O)N1CCC(CCCCNC(=O)c2cc3cnccc3[nH]2)CC1
5. Cc1ccc(F)cc1C(=O)N1CCC(CCCCNC(=O)c2cc3cnccc3[nH]2)CC1

output:
1. 7.16
2. 7.44
3. 7.67
4. 7.12
5. 7.85

Hi team, please reply with pIC50 for each item in this list.
1. Cc1oncc1S(=O)(=O)N1CCC(CCCCNC(=O)c2cc3cnccc3[nH]2)CC1
2. CCOc1ccccc1C(=O)N1CCC(CCCCNC(=O)c2cc3ccncc3s2)CC1

output:
7.44
8.40

Quick one: give me pIC50 for each item below, same order please.
1. O=C(NCCCCC1CCN(C(=O)c2c(F)cccc2F)CC1)c1cc2ccncc2s1
2. O=C(NCCC1CCN(S(=O)(=O)c2ccccc2)CC1)c1cc2cnccc2[nH]1

output:
8.37
7.29
